meta.source: patent US11981666B2

protocol: Pharmacokinetic experiment in cynomolgus monkeys
Assay type: in vivo, cynomolgus monkey
condition details: male, cynomolgus monkey, plasma, iv, 2 mg/kg, intravenous 2 mg/kg, male, Mean (n=3); read-out: Vss
Method: Experimental objective: To evaluate the pharmacokinetic profile of compound 1 and compare it with compound 20 (control compound). Experimental method: 6 male Non-juvenile cynomolgus monkeys, 4˜5 kg, were purchased from Huazheng Experimental Animal Center. Group IV was administered intravenously at a dose of 2 mg/kg (5 mL/kg) (n=3), and the group PO was administered orally at a dose of 20 mg/kg (10 mL/kg) (n=3). […]
measured attribute: Vd (L/kg)

INSERT INTO measurements (test_smiles, result_unit, experimental_value) VALUES
  ('O=C(O)c1ccc2nc(CN3CCC(c4cccc(OCc5ccc(C6COC6)cc5F)n4)CC3)n(C[C@@H]3CCO3)c2c1', 'L/kg', 0.0569);

* * *

protocol: Pharmacokinetic experiment in cynomolgus monkeys
Assay type: in vivo, cynomolgus monkey
condition details: male, cynomolgus monkey, plasma, iv, 2 mg/kg, intravenous 2 mg/kg, male, individual animals #1, #2, #3; read-out: Vss
measured attribute: Vd (L/kg)

INSERT INTO assay_data (compound, result_unit, experimental_value) VALUES
  ('O=C(O)c1ccc2nc(CN3CCC(c4cccc(OCc5ccc(C6COC6)cc5F)n4)CC3)n(C[C@@H]3CCO3)c2c1 [Compound 1]', 'L/kg', 0.0508);

* * *

protocol: Pharmacokinetic experiment in cynomolgus monkeys
Assay type: in vivo, cynomolgus monkey
condition details: male, cynomolgus monkey, plasma, po, 20 mg/kg, oral 20 mg/kg, male, individual animals #4, #5, #6; read-out: Tmax
Procedure: Experimental objective: To evaluate the pharmacokinetic profile of compound 1 and compare it with compound 20 (control compound). Experimental method: 6 male Non-juvenile cynomolgus monkeys, 4˜5 kg, were purchased from Huazheng Experimental Animal Center. Group IV was administered intravenously at a dose of 2 mg/kg (5 mL/kg) (n=3), and the group PO was administered orally at a dose of 20 mg/kg (10 mL/kg) (n=3). […]
measured attribute: Tmax (h)

INSERT INTO assay_data (test_smiles, result_unit, experimental_value) VALUES
  ('O=C(O)c1ccc2nc(CN3CCC(c4cccc(OCc5ccc(C6COC6)cc5F)n4)CC3)n(C[C@@H]3CCO3)c2c1', 'h', 2);

* * *

protocol: Toxicological experiment in mice, 14-day repeated oral gavage (toxicokinetic study)
Type: in vivo, mouse
condition details: ICR, mouse, po; 200 mg/kg, plasma of male animals, Day 14
We begin with a simple list: items and their reported Cmax.
measured attribute: Cmax (µg/mL)

INSERT INTO measurements (molecule, measured_attribute, result_unit, experimental_value) VALUES
  ('N#Cc1ccc(COc2cccc(C3CCN(Cc4nc5ccc(C(=O)O)cc5n4C[C@@H]4CCO4)CC3)n2)c(F)c1 [Compound 20, reference compound]', 'Cmax', 'µg/mL', 91),
  ('O=C(O)c1ccc2nc(CN3CCC(c4cccc(OCc5ccc(C6COC6)cc5F)n4)CC3)n(C[C@@H]3CCO3)c2c1', 'Cmax', 'µg/mL', 81);

* * *

protocol: Pharmacokinetic experiment in cynomolgus monkeys
Type: in vivo, cynomolgus monkey
condition details: male, cynomolgus monkey, plasma, iv, 2 mg/kg, intravenous 2 mg/kg, individual animals #1, #2, #3
measured attribute: MRT inf (min)

INSERT INTO measurements (test_smiles, measured_attribute, result_unit, experimental_value) VALUES
  ('O=C(O)c1ccc2nc(CN3CCC(c4cccc(OCc5ccc(C6COC6)cc5F)n4)CC3)n(C[C@@H]3CCO3)c2c1', 'MRT inf', 'min', 23.2);
